target: T1, HER2 (human, UniProt P04626 23-652); test: ELISA, format not described; design: unit not given here
T1 construct: The ELISA is not described; also called ERBB2; CD340
outcome-measure: ELISA_avg

binder="HER2-binding D domain SEQ ID NO: 812 (designed binder) MGSWVNFKTHLARIKVHLEALGGSEAELALFEHDIANFEQVLQQYKGKGNPEVEALRKEAAAIRDELQAYRHN" outcome_measure=ELISA_avg endpoint_value=7.91
binder="HER2-binding D domain SEQ ID NO: 809 (designed binder, also called eb08) MGSWYEFRWRLHAIWLRLGALGGSEAELAAFEKEIAAFESELQAYKGKGNPEVEWLRQDAAQIRYILQAYRHN" outcome_measure=ELISA_avg endpoint_value=7.18
binder="HER2-binding D domain SEQ ID NO: 834 (designed binder, also called eb06) MGSWWEFRVRLEAIDYRLKALGGSEAELAAFEKEIAAFESELQAYKGKGNPEVEYLRMKAATIRAILQAYRHN" outcome_measure=ELISA_avg endpoint_value=6.82
